Target: T1, monkey GFRα3 expressed with a C-terminal myc-myc-hexahistidine tag (monkey (Mf), UniProt O60609 32-374 (human entry), limits assumed)
T1 construct: also called MfGFRα3-mmh; MfGFRα3-mmH
T1 chain: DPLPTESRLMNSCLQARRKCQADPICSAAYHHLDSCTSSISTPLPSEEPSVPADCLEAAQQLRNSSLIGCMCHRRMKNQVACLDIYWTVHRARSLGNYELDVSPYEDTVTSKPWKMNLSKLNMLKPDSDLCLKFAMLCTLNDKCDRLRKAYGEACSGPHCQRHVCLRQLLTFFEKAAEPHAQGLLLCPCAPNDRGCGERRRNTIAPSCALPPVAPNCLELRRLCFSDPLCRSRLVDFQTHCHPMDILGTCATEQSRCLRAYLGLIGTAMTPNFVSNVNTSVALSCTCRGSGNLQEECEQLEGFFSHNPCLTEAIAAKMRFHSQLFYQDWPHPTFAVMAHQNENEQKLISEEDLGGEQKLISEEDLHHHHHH
Experiment: SPR, Ab captured, 37C
// reported kon for each item listed
observation.type: kon (M⁻¹ s⁻¹)

• H2aM2210N (antibody, mouse IgG2, V domains shown, chimeric, mouse IgG2 Fc (H2M/H2aM); also called H2M2210N) VH: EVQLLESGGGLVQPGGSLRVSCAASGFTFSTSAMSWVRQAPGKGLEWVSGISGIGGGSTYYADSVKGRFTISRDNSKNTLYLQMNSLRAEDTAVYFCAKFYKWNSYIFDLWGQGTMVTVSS VL: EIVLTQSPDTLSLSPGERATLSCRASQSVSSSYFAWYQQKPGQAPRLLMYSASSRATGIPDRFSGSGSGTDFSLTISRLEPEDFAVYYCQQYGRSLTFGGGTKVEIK = 80900
• H1M2236N (antibody, V domains shown, chimeric, human variable and mouse constant domains (H1M)) VH: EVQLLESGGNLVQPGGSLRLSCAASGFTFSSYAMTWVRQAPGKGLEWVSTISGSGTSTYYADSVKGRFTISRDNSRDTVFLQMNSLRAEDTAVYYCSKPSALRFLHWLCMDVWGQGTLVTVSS VL: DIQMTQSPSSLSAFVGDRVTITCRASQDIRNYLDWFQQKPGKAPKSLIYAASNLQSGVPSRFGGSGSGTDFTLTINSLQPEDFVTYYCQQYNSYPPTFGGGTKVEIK = 434000
• H4H2344S (antibody, human IgG4, V domains shown, human IgG4 Fc (H4H)) VH: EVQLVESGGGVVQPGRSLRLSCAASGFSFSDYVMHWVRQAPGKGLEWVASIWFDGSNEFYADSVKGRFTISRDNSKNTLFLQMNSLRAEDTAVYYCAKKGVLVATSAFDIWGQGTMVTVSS VL: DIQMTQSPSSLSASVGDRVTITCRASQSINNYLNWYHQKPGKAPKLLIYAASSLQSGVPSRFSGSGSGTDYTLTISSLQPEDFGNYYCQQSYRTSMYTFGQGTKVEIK = 161000
